TARGET_DESC: BACE1 in primary mouse cortical neurons (mouse, UniProt P56818 46-501)
Sequence (P56818 46-501): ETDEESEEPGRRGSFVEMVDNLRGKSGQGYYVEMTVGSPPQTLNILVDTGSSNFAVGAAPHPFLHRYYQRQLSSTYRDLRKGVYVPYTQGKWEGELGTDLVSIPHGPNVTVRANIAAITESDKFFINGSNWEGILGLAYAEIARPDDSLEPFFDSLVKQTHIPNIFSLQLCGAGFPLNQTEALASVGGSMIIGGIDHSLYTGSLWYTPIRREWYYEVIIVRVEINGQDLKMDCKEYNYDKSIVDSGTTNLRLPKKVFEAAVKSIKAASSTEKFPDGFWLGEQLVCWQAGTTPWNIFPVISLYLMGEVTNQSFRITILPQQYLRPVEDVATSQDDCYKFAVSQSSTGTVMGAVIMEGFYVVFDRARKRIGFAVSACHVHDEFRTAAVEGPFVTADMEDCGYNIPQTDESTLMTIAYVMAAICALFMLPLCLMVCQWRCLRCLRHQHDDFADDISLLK
ASSAY_NAME: cell-based or functional assay

BINDER	READING_UNIT	maximal % inhibition of Abeta x-40
6279 (antibody, V domains shown, anti-BACE1 IgG) VH: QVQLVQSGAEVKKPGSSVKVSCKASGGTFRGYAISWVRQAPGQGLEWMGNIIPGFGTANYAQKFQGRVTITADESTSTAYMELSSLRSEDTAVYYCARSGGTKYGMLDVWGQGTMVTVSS VL: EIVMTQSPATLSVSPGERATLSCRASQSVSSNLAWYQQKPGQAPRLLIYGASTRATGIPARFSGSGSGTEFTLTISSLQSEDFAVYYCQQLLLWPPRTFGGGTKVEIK	%	71
6297 (antibody, V domains shown, anti-BACE1 IgG) VH: QLQLQESGPGLVKPSETLSLTCTVSGGPISSSSYYWGWIRQPPGKGLEWIGNIYYSGSTYYNPSLRGRVTISVDTSKNQFSLKLSSVTAADTAVYYCARLGHGYNYFDLWGRGTLVTVSS VL: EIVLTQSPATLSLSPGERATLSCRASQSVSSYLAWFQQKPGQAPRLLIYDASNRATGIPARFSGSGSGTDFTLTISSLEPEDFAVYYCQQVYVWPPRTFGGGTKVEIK	%	63
6272 (antibody, V domains shown, anti-BACE1 IgG) VH: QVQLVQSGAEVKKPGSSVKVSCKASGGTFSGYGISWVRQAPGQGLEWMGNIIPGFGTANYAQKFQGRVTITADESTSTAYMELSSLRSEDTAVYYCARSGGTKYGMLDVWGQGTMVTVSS VL: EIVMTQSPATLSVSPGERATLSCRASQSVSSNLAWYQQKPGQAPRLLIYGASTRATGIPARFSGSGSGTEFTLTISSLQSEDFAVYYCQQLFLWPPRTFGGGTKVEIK	%	82
